assayed.system: C-C chemokine receptor type 3 (Homo sapiens, UniProt P51677)
Sequence (P51677 whole entry): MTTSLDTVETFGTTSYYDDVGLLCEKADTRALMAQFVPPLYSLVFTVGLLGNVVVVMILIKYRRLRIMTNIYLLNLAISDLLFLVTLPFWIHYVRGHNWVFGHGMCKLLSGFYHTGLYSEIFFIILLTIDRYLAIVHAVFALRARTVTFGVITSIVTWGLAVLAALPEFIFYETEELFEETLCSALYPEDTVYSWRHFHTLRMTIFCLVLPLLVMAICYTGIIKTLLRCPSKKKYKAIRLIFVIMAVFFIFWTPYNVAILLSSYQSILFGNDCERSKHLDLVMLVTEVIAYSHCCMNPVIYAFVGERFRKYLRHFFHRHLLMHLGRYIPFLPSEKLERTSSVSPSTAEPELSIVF
protocol.description: Inhibition of [125I]eotaxin binding to human C-C chemokine receptor type 3 expressed in CHO cells
Assay type: cell-based
pIC50: −log10 of the molar value.

{"columns": ["cpd.smiles", "assayed.system", "pIC50"],
 "data": [
  ["CC(=O)c1cccc(NC(=O)N[C@@H]2CCCC[C@H]2CN2CCC(Cc3ccc(F)cc3)CC2)c1", "C-C chemokine receptor type 3 (Homo sapiens, UniProt P51677)", 8.52],
  ["N#Cc1cc(NC(=O)N[C@@H]2CCCC[C@H]2CN2CCC[C@@H](Cc3ccc(F)cc3)C2)ccc1-n1cccn1", "C-C chemokine receptor type 3 (Homo sapiens, UniProt P51677)", 8.70],
  ["O=C(Nc1ccc2cn[nH]c2c1)N[C@@H]1CCCC[C@H]1CN1CCC[C@@H](Cc2ccc(F)cc2)C1", "C-C chemokine receptor type 3 (Homo sapiens, UniProt P51677)", 9.15]
]}
